The reported measurements were obtained from patent US12252481B2.

Reported values of EC50 for individual entries
System: human beta-coronavirus OC43
procedure summary: OC43 coronavirus antiviral assay in HeLa cells (cytopathic effect, cell-titer-glo)
Format: cell-based
test parameters: Betacoronavirus 1, OC43, HeLa, 144 h, 6 days at 33° C., read-out: EC50 (class)

Worked cases, answers included:
>>> result("CC(C)(C)[C@H](NC(=O)C(F)(F)C(F)(F)F)C(=O)N1C[C@H]2[C@@H]([C@H]1C(=O)N[C@H](C#N)C[C@@H]1CCNC1=O)[C@H]1C=C[C@@H]2C1 [Compound 76]")
"< 100 nM"
>>> result("CC(C)(C)[C@H](NC(=O)C(F)(F)F)C(=O)N1C[C@H]2[C@@H]([C@H]1C(=O)N[C@H](C#N)C[C@@H]1OCCNC1=O)[C@H]1C=C[C@@H]2C1(F)F [Compound 117]")
"< 100 nM"

Let us move to another entry and its EC50.
Lookup: Return value of EC50 for input CC(C)(C)[C@H](NC(=O)CC(F)(F)F)C(=O)N1C[C@H]2[C@@H]([C@H]1C(=O)N[C@H](C#N)C[C@@H]1OCCNC1=O)[C@H]1C=C[C@@H]2C1 [Compound 132] , no commentary.
Found: < 100 nM
